meta.source: patent US6809119B2

Target: human Branched Chain Amino Acid Aminotransferase cytosolic form (hBCATc) (Homo sapiens)
Construct: inferred from purification on a Ni-charged chelating column with imidazole elution
Sequence (P54687 whole entry): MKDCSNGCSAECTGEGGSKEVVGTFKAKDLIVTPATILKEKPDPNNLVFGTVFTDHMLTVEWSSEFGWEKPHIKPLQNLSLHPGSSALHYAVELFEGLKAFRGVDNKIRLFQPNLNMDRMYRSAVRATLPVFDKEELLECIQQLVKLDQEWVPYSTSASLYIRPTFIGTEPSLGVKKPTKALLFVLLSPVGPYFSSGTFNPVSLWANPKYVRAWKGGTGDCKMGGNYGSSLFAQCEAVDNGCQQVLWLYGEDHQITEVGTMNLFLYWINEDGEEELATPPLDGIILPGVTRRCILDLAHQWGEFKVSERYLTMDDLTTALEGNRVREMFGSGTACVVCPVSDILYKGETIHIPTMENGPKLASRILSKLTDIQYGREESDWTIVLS
Test: In vitro coupled enzyme assay, human BCAT cytosolic form
Conditions: inhibition of recombinant human BCATc; coupled glutamate dehydrogenase/NADH assay, 37° C., pH 7.8; read-out: rhBCATc
pIC50: −log10 of the molar value.
Property name: pIC50

[I] CCc1ccc(S(=O)(=O)Nc2ccc(C(=O)NNS(=O)(=O)c3ccccc3)cc2)cc1 [Example 10]
[II] O=C(NNS(=O)(=O)c1ccccc1)c1ccc(NCc2ccccc2)cc1 [Example 16]
Enquiry: Given I and II , report the one with the higher recorded pIC50. Pick one and reply with its label.
Return: I
(I: 4.89, II: 4.57)

====

Property name: melting point

# count of solved cases: 5
- Molecule: "Cc1cccc(Cl)c1S(=O)(=O)Nc1ccc(C(=O)NNS(=O)(=O)c2ccccc2)cc1 [Example 7]"
  melting point: "214.4 to 215.6 °C"
- Molecule: "O=C(NNS(=O)(=O)c1ccccc1)c1ccc(NS(=O)(=O)c2ccccc2)cc1 [Example 15]"
  melting point: "140.8 to 144.5 °C"
- Molecule: "Cc1cccc(S(=O)(=O)Nc2ccc(C(=O)NNS(=O)(=O)c3ccccc3)cc2)c1 (hydrate or solvate) [Example 17]"
  melting point: "219 to 219.7 °C"
- Molecule: "Cc1ccc(S(=O)(=O)Nc2ccc(C(=O)NNS(=O)(=O)c3ccccc3)cc2)cc1 [Example 9]"
  melting point: "191.6 to 192.4 °C"
- Molecule: "O=C(NNS(=O)(=O)c1ccccc1)c1ccc(C#Cc2ccccc2)cc1 [Example 32]"
  melting point: "175 °C (dec.)"

Enquiry: For the molecule O=C(NNS(=O)(=O)c1ccccc1)c1ccc(NS(=O)(=O)c2c(Cl)cc(Cl)cc2Cl)cc1 [Example 3] , give its measured melting point value.
Return: 195.7 to 196.2 °C

Enquiry: Name the recorded melting point of the molecule listed here: CC(C)(C)CCc1ccc(C(=O)NNS(=O)(=O)c2ccccc2)cc1 [Example 38]
Return: 168 to 169 °C

Enquiry: Output melting point of Nc1ccc(C(=O)NNS(=O)(=O)c2ccccc2)cc1 [Example 2]
Return: 171 to 173 °C

====

melting point reference

Examples with answers:
- Record smiles: "O=C(NNS(=O)(=O)c1ccccc1)c1ccc(I)cc1"
  melting point: "193 to 195 °C"
- Record smiles: "O=C(NNS(=O)(=O)c1ccccc1)c1ccc(NS(=O)(=O)c2ccc(F)cc2)cc1"
  melting point: "183.5 to 185 °C"
- Record smiles: "CC(C)(C)C#Cc1ccc(C(=O)NNS(=O)(=O)c2ccccc2)cc1"
  melting point: "160 °C (dec.)"
- Record smiles: "CCc1ccc(S(=O)(=O)Nc2ccc(C(=O)NNS(=O)(=O)c3ccccc3)cc2)cc1"
  melting point: "142.3 to 142.9 °C"
- Record smiles: "O=C(NNS(=O)(=O)c1ccccc1)c1ccc(C#CCC2CCCCC2)cc1"
  melting point: "180 to 182 °C"

Enquiry: In one line, give reported melting point of the entry COc1ccc(S(=O)(=O)Nc2ccc(C(=O)NNS(=O)(=O)c3ccccc3)cc2)cc1 .
Return: 164.3 to 164.9 °C

Enquiry: Specify reported melting point for the molecule shown: O=C(NNS(=O)(=O)c1ccccc1)c1ccc(CCc2ccccc2)cc1
Return: 158 to 159 °C

Enquiry: Return value of melting point for input O=C(NNS(=O)(=O)c1ccccc1)c1ccc(NS(=O)(=O)c2ccc(Oc3ccccc3)cc2)cc1 , no commentary.
Return: 94.1 to 94.9 °C

Enquiry: In one line, give reported melting point of the entry CC(C)(C)c1ccc(C(=O)NNS(=O)(=O)c2ccccc2)cc1 .
Return: 197 to 199 °C

Enquiry: Identify the reported melting point for the following entry. O=C(NNS(=O)(=O)c1ccccc1)c1ccccc1Oc1ccccc1
Return: 149 to 150 °C
